- Target of assay: T1, human GALR2 receptor (human, UniProt O43603 1-387)
- T1 construct: whole, on cells; Expressed in CHO cells; also called Hum GALR2
- T1 sequence (looked up): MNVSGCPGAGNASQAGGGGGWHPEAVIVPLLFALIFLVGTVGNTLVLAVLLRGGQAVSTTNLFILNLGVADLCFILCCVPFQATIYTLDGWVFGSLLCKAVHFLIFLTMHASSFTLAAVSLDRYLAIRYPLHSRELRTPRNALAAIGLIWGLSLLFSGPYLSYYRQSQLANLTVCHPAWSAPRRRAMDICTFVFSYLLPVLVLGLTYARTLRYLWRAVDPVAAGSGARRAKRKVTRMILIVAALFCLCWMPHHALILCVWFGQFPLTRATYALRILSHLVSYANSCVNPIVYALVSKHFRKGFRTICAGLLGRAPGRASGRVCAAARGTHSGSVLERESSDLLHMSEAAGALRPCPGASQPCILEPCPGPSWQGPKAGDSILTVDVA
- Procedure text: displacement of porcine 125I-galanin; human GALR2 in CHO
Experimental endpoint: Ki (nM)

LGSPVKEKRGWTLNSAGYLLGPHAIDNHRSFHDKYGLA (peptide, UniProt P07480 24-61, looked up, range -9 to +29; also called galanin -9 to +29) [(-) 9 to (+) 29 galanin, porcine] | 5.43
SPVKEKRGWTLNSAGYLLGPHAIDNHRSFHDKYGLA (peptide, UniProt P07480 26-61, looked up, range -7 to +29; also called galanin -7 to +29; Gal -7-29) [(-7) to (+29) galanin, porcine] | 4.95

A: GWTLNSAGYLLG (peptide, UniProt P07480 33-44, looked up, range 1-12; Range counts on the galanin peptide) [Porcine galanin 1-12]
B: GWTLNSAGYLLGP (peptide, UniProt P07480 33-45, looked up, range 1-13; Range counts on the galanin peptide) [porcine galanin 1-13]
Exercise: Which of these two has the smaller recorded Ki: A or B ? Use the label to indicate which entry you chose.
Solution: A
(A: 5.17 nM, B: 28.2 nM)

Values from patent US20030082641A1
